# measurement-conditions: in methanol, 288.15 K
property-measured: solubility (mole fraction)
Number only, please.

Ask: If you can, please state the reported solubility (mole fraction) value of "N#Cc1ccc(C(c2ccc(C#N)cc2)n2cncn2)cc1" .
Result: 0.00133

* * *

# measurement-conditions: in ethyl acetate, 288.15 K
property-measured: solubility (mole fraction)
Response field accepts a number only; no unit should be typed.

Ask: Value lookup for solubility (mole fraction); key = "N#Cc1ccc(C(c2ccc(C#N)cc2)n2cncn2)cc1"
Result: 0.00609

* * *

# measurement-conditions: in methyl acetate, 313.15 K
property-measured: solubility (mole fraction)
Reply: number alone, nothing else.

Ask: Sample "N#Cc1ccc(C(c2ccc(C#N)cc2)n2cncn2)cc1" — what was its solubility (mole fraction)?
Result: 0.0211
